Consider the following molecules; for each one, report its Percent Effect.
Test system: Leishmania donovani
Experiment: Leishmania intramacrophage assay
Format: functional, organism-based
Design: scale not given: in the data most compounds retested in dose-response had high values
Experimental parameters: 30.3 µM; […]
The whole screen tested about 69,000 compounds, of which about 1,000 (1.4%) showed an effect of 50% or more. The sample holds strong results, similar compounds and a random draw of the others, so the mix is not that of the screen.
Just the number please, in %, no unit attached.

QUERY: Fill in the blank: the reported Percent Effect of CCNc1ncc2c(n1)CN(c1ccc(OC(F)(F)F)cc1)C2=O is ____.
RESULT: 23.96

QUERY: Lookup CCN(CC)Cc1cc(=O)n2c(n1)CN(C(=O)c1ccc[nH]1)CCC2
RESULT: 36.34

QUERY: Please do the same for COc1cccc(CN(C(=O)Nc2nncs2)C2CCC(O)CC2)c1 (stereo unspecified) as well.
RESULT: 1.528

QUERY: Same question for NC(=O)c1ccc(NC(=O)c2ccncc2Cl)cn1 please.
RESULT: 4.641

QUERY: Here is the next molecule: Cc1noc([C@@H]2C[C@@H]3CCN(c4nnc(C)s4)C[C@H]3O2)n1.O=C(O)C(F)(F)F
RESULT: 45.73

QUERY: Repeat for the following molecule: CCC(NC(=O)C(C)(C)C)c1ccccc1C (stereo unspecified)
RESULT: -8.319

----------
Test system: Leishmania donovani
Experiment: Leishmania intramacrophage assay
Assay type: functional, organism-based
Parameters: scale not given: in the data most compounds retested in dose-response had high values
Experimental parameters: 30.3 µM; […]
Hit rate of the full screen: of about 69,000 compounds, about 1,000 (1.4%) showed an effect of 50% or more. This is one part of a sample in which strong results are shown more often than they occur.
Provide the reported Percent Effect of each item.
Answer in %, number only, no unit symbol.

QUERY: Leishmania donovani / Percent Effect / CCc1ccc(C(=O)N2CCCC2c2c(C)nn(C)c2OC)o1 (stereo unspecified) : value?
RESULT: 16.94

QUERY: And then Cc1nn(C)c(Oc2ccc(Cl)cc2)c1CN1CC[C@H](CO)[C@@H](O)C1 , what is it?
RESULT: 9.933

QUERY: Repeat with Cc1nn(C)c(Oc2ccc(Cl)cc2)c1CN1CCC(CN)C1 (stereo unspecified)
RESULT: 74.8

QUERY: Could you do the same for COc1ccccc1-n1nc(CC(C)C)nc1CSc1nnc(N)s1 , please?
RESULT: 13.73

QUERY: Input Cc1nn(C)c(Oc2ccc(Cl)cc2)c1CN1CCOC(CN)C1 (stereo unspecified)
RESULT: 3.142

QUERY: Same for CC(C)c1nc(CN(C)C(=O)C2CC(=O)N(Cc3ccncc3)C2)cs1 (stereo unspecified)
RESULT: 1.333

----------
Test system: Leishmania donovani
Experiment: Leishmania intramacrophage assay
Type: functional, organism-based
Set-up: scale not given: in the data most compounds retested in dose-response had high values
Experimental parameters: 30.3 µM; […]
About 1,000 (1.4%) of roughly 69,000 compounds showed an effect of 50% or more. The list comes from a sample in which strong results are over-represented; it also holds close analogues and randomly drawn compounds.
Reported property: Percent Effect (%)
Hi! Could you send only the number? It should be in %, unit omitted.

QUERY: Recorded Percent Effect for CNS(=O)(=O)c1ccc(CNC(=O)N(C)CC(O)COC)cc1 (configuration not stated) with Leishmania donovani, please?
RESULT: 11.97

QUERY: Also, COCCOCC(=O)NC(C#N)c1cccc(Cl)c1Cl (configuration not stated) please.
RESULT: -18.55

QUERY: Query CCN(Cc1nonc1C)C(=O)c1ccc(Br)o1 next
RESULT: 25.68

QUERY: Cool, now CCNC(=O)C1CCCN(c2ccc3ccc(F)cc3n2)C1 (configuration not stated)
RESULT: 4.617

QUERY: Consider next the compound c1ccc(-c2nnc3ccc(N4CCC5(CCOC5)C4)nn23)cc1 (configuration not stated) in the same way.
RESULT: -7.106

QUERY: Then this compound: Clc1cc(Cl)cc(CN2CCC(NCc3ncc[nH]3)CC2)c1
RESULT: 84.31

QUERY: Same read-out for Cc1nc[nH]c1CNC1CC(=O)N(CCc2cccc(Cl)c2)C1 (configuration not stated) ?
RESULT: -19.6

QUERY: For Cc1cccc(OC2CCN(Cc3ncc[nH]3)CC2)c1 then?
RESULT: -10.49

QUERY: And then Clc1cccc(N2CCC(NCc3cc[nH]n3)C2)c1 (configuration not stated) , what is it?
RESULT: 14.09

QUERY: Please do the same for O=C1CC(NCc2ccncc2)CN1CCc1cccc(Cl)c1 (configuration not stated) as well.
RESULT: 37.94

QUERY: Repeat for the following compound: COc1cc(OC)cc(N2CCC(NCc3cc[nH]n3)C2)c1 (configuration not stated)
RESULT: 11.55

QUERY: One more compound: Clc1cc(Cl)cc(CN2CCC(NCc3cc[nH]n3)CC2)c1
RESULT: 71.72
